B1: library; a variant is named by its letters at N, in order (parent)
chain: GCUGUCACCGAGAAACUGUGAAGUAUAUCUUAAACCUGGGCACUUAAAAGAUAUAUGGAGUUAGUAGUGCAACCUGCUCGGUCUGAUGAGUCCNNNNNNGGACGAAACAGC

# Variants of: B1
# experimentalDetails: normalized RNA/DNA level with ligand (relative to sTRSVctl = 100) (log10 (% of sTRSVctl)); HEK293T; ligand: cyclic di-GMP (c-di-GMP-II aptamer); ligand concentration (+) RNA-Seq: 1 mM; higher = less ribozyme self-cleavage, higher mRNA level
# details: reporter: mCherry (pCS4076), ligand present: yes
quantityKind: normalized RNA/DNA level with ligand (log10)
# output: bare number, no unit

Annotate the variant `AAAGAG` with its measured normalized RNA/DNA level with ligand (log10).
1.63

Annotate the variant `AAGCAC` with its measured normalized RNA/DNA level with ligand (log10).
1.82

Annotate the variant `AUAGUG` with its measured normalized RNA/DNA level with ligand (log10).
1.71

Annotate the variant `CCCUCA` with its measured normalized RNA/DNA level with ligand (log10).
1.73

Annotate the variant `AGUCGG` with its measured normalized RNA/DNA level with ligand (log10).
1.87

Annotate the variant `CGCUUU` with its measured normalized RNA/DNA level with ligand (log10).
1.69

Annotate the variant `GCCAGG` with its measured normalized RNA/DNA level with ligand (log10).
1.84

Annotate the variant `GGCGAG` with its measured normalized RNA/DNA level with ligand (log10).
1.68

Annotate the variant `UUUCCU` with its measured normalized RNA/DNA level with ligand (log10).
1.92

Annotate the variant `ACUCCC` with its measured normalized RNA/DNA level with ligand (log10).
1.87

Annotate the variant `GUGGGU` with its measured normalized RNA/DNA level with ligand (log10).
1.85

Annotate the variant `AGAAAG` with its measured normalized RNA/DNA level with ligand (log10).
1.69

Annotate the variant `AUUUCG` with its measured normalized RNA/DNA level with ligand (log10).
1.82

Annotate the variant `CUCUAA` with its measured normalized RNA/DNA level with ligand (log10).
1.61

Annotate the variant `CUCAUG` with its measured normalized RNA/DNA level with ligand (log10).
1.82

Annotate the variant `GGAACC` with its measured normalized RNA/DNA level with ligand (log10).
1.86

Annotate the variant `GUGUGG` with its measured normalized RNA/DNA level with ligand (log10).
1.86

Annotate the variant `UAGUAG` with its measured normalized RNA/DNA level with ligand (log10).
1.84

Annotate the variant `UCCCCU` with its measured normalized RNA/DNA level with ligand (log10).
1.9

Annotate the variant `CUAACA` with its measured normalized RNA/DNA level with ligand (log10).
1.78

Annotate the variant `GUUGUA` with its measured normalized RNA/DNA level with ligand (log10).
1.77

Annotate the variant `AGAAGG` with its measured normalized RNA/DNA level with ligand (log10).
1.69
